- assayExplanation: Acute toxicity in rats
- assayContext: Jcl-SD, rat, in vivo, po, orally, female, read-out: LD₅₀
measuredAttribute: LD50

Please fill in: LD50 reported for O=C(Nc1cccc2c(=O)cc(-c3nnn[nH]3)oc12)c1ccc(OCCCCc2ccccc2)cc1 [Compound A, hydrate] = > 2000 mg/kg

====

- assayExplanation: Acute toxicity in mice
- assayContext: Jcl-ICR, mouse, in vivo, sc, subcutaneously, male, read-out: LD₅₀
measuredAttribute: LD50

Please fill in: LD50 reported for O=C(Nc1cccc2c(=O)cc(-c3nnn[nH]3)oc12)c1ccc(OCCCCc2ccccc2)cc1 [Compound A, hydrate] = > 2000 mg/kg

====

- assayExplanation: Acute toxicity in rats
- assayContext: Jcl-SD, rat, in vivo, sc, subcutaneously, female, read-out: LD₅₀
measuredAttribute: LD50

Please fill in: LD50 reported for O=C(Nc1cccc2c(=O)cc(-c3nnn[nH]3)oc12)c1ccc(OCCCCc2ccccc2)cc1 [Compound A, hydrate] = > 2000 mg/kg

====

- assayExplanation: Acute toxicity in rats
- assayContext: Jcl-SD, rat, in vivo, po, orally, male, read-out: LD₅₀
measuredAttribute: LD50

Please fill in: LD50 reported for O=C(Nc1cccc2c(=O)cc(-c3nnn[nH]3)oc12)c1ccc(OCCCCc2ccccc2)cc1 [Compound A, hydrate] = > 2000 mg/kg

====

- assayExplanation: Acute toxicity in mice
- assayContext: Jcl-ICR, mouse, in vivo, po, orally, male, read-out: LD₅₀
measuredAttribute: LD50

Please fill in: LD50 reported for O=C(Nc1cccc2c(=O)cc(-c3nnn[nH]3)oc12)c1ccc(OCCCCc2ccccc2)cc1 [Compound A, hydrate] = > 2000 mg/kg
